Documented percent viability across a set of sequences
- System: MCF10A
- experimental_details: percent viability (nuclei count relative to siNT); higher = more viable cells
- assay_setup: 20 nM; 72 h
Only the number, expressed in %, is required.

{"biopolymer_sequence": "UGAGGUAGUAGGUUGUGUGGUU [hsa-let-7b-5p]", "percent viability / %": 22.8}

# AGAAGUAACUACGGUUUUUGCA [hsa-miR-548ao-5p] with MCF10A: percent viability is 74.5

# AGGGCUUAGCUGCUUGUGAGCA [hsa-miR-27a-5p] with MCF10A: percent viability is 19.8

# UGGUAGACUAUGGAACGUAGG [hsa-miR-379-5p] with MCF10A: percent viability is 31

# UGUCUUACUCCCUCAGGCACAU [hsa-miR-550a-3p] with MCF10A: percent viability is 60.2

# UGUGAUAUCAUGGUUCCUGGGA [hsa-miR-3689a-5p] with MCF10A: percent viability is 37.9

# AAUGUGGACUGGUGUGACCAAA [hsa-miR-4491] with MCF10A: percent viability is 45.4

---

- System: MCF10A
- experimental_details: percent viability (nuclei count relative to siNT); higher = more viable cells
- assay_setup: 20 nM; 72 h
Note to self: percent viability under 50% means Met, ties and anything higher get Not met.

{"biopolymer_sequence": "UUGGGAUCAUUUUGCAUCCAUA [hsa-miR-450b-3p]", "category": "Met"}
{"biopolymer_sequence": "CAUCAUCGUCUCAAAUGAGUCU [hsa-miR-136-3p]", "category": "Met"}
{"biopolymer_sequence": "UCUGCCCCCUCCGCUGCUGCCA [hsa-miR-1913]", "category": "Not met"}
{"biopolymer_sequence": "UUGUUCUCAAACUGGCUGUCAGA [hsa-miR-7156-5p]", "category": "Met"}
{"biopolymer_sequence": "UGGGAGCCAUGAGGGUCUGUGC [hsa-miR-6827-5p]", "category": "Met"}

Consider AGGAGGACAAGUUGUGGGAU [hsa-miR-7154-3p] . Does its percent viability lie strictly below 50%? Met

Consider GGGCGCCUGUGAUCCCAAC [hsa-miR-566] . Does its percent viability lie strictly below 50%? Not met

Consider AGUGGUUCUUAACAGUUCAACAGUU [hsa-miR-203a-5p] . Does its percent viability lie strictly below 50%? Not met

Consider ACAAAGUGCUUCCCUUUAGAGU [hsa-miR-520h] . Does its percent viability lie strictly below 50%? Not met

Consider AGGCAGUGUAUUGUUAGCUGGC [hsa-miR-449b-5p] . Does its percent viability lie strictly below 50%? Not met

---

Documented one-nucleolus phenotype percent effect across a set of sequences
- System: MCF10A
- experimental_details: one-nucleolus phenotype percent effect (relative to siNT 0% and siNOL11 100%); higher = more cells with one nucleolus (ribosome biogenesis inhibition)
- assay_setup: 20 nM; 72 h
Only the number, expressed in %, is required.

In the examples that follow, each entry is paired with its recorded one-nucleolus phenotype percent effect.
{"biopolymer_sequence": "AGCAGGUGCGGGGCGGCG [hsa-miR-3665]", "assayed_system": "MCF10A", "unit_tag": "%", "one-nucleolus phenotype percent effect": 40.6}
{"biopolymer_sequence": "ACCCCUCGUUUCUUCCCCCAG [hsa-miR-6795-3p]", "assayed_system": "MCF10A", "unit_tag": "%", "one-nucleolus phenotype percent effect": -18.5}
{"biopolymer_sequence": "UAAUGAUUCAUCAGACUCAGAU [hsa-miR-580-5p]", "assayed_system": "MCF10A", "unit_tag": "%", "one-nucleolus phenotype percent effect": 14}
{"biopolymer_sequence": "ACCUUGCCUUGCUGCCCGGGCC [hsa-miR-1915-5p]", "assayed_system": "MCF10A", "unit_tag": "%", "one-nucleolus phenotype percent effect": 39.7}
{"biopolymer_sequence": "AGGGCAUAGGAGAGGGUUGAUAU [hsa-miR-3945]", "assayed_system": "MCF10A", "unit_tag": "%", "one-nucleolus phenotype percent effect": -1.06}

// CCCUUGGGUCUGAUGGGGUAG [hsa-miR-3189-3p] : one-nucleolus phenotype percent effect value = 15.4
